assayed_target: UniProt:Q9UBN7
Sequence (Q9UBN7 whole entry): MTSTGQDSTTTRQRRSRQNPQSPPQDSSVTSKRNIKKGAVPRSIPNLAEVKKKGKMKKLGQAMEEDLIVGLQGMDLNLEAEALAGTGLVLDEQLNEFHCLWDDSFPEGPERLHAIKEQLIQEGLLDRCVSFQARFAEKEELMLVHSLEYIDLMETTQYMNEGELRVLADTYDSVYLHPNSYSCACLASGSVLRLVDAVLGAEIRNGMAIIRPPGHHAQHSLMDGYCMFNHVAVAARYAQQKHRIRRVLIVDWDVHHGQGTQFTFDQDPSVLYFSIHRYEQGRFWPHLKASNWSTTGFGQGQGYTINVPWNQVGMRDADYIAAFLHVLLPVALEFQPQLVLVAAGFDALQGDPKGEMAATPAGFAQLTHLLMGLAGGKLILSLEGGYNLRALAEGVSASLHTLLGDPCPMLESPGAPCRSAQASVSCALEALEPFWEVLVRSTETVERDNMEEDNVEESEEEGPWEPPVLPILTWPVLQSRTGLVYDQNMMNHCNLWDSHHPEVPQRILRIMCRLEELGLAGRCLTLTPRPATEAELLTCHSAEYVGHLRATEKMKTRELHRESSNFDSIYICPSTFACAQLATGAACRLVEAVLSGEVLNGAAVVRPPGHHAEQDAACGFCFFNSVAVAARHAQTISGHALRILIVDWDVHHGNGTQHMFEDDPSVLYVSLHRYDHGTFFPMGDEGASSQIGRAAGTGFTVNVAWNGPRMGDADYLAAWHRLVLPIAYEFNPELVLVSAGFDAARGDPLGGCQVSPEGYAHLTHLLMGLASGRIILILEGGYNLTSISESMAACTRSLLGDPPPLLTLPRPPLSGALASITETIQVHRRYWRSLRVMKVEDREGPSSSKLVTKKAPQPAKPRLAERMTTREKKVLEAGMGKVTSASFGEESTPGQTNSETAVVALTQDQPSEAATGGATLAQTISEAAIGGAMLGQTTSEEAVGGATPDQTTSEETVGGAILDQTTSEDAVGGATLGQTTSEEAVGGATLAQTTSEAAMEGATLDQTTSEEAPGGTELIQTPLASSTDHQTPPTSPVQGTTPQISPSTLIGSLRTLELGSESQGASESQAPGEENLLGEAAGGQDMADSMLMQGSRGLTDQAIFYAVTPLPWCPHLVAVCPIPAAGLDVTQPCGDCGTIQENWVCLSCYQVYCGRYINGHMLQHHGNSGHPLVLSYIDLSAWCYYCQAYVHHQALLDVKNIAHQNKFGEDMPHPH
protocol_summary: Inhibition of recombinant human HDAC6 at 10 uM using Z-(Ac)Lys-AMC as substrate after 90 mins by fluorescence based micro plate assay
inhibition of 60% or higher: 1. Under 60%: 0.

Example entries and their recorded answers appear below.
## Task Is it the case that "Cc1cc2cc(NS(=O)(=O)Cc3cccc(C(=O)NO)c3)ccc2n(C)c1=O" has inhibition reaching or exceeding 60%?
## Result 0

## Task Same read-out for "COc1ccc(C(=O)NO)cc1NCc1ccc(OCCCCC(=O)Nc2ccc3c(c2)cc(C)c(=O)n3C)cc1" ?
## Result 1

## Task Same question, "COc1ccc(C(=O)NO)cc1S(=O)(=O)Nc1ccc2c(c1)cc(C)c(=O)n2C" this time
## Result 1

---
## Task Could you tell me if the measured inhibition of "Cc1cc2cc(NCc3cc(C(=O)NO)ccc3Cl)ccc2n(C)c1=O" reaches 60% or more?
## Result 1

## Task Repeat for the following compound: "COc1cc(C(=O)NO)ccc1CS(=O)(=O)Nc1ccc2c(c1)cc(C)c(=O)n2C"
## Result 0

## Task Please give the result for "COc1ccc(C(=O)NO)cc1CS(=O)(=O)Nc1ccc2c(c1)cc(C)c(=O)n2C" too.
## Result 1

## Task And for "COc1ccc(C(=O)NO)cc1CNc1ccc2c(c1)cc(C)c(=O)n2C" ?
## Result 1

* * *

Listing: IC50 of selected compounds
assayed_target: Histone deacetylase 8 (Homo sapiens, UniProt Q9BY41)
Sequence (Q9BY41 whole entry): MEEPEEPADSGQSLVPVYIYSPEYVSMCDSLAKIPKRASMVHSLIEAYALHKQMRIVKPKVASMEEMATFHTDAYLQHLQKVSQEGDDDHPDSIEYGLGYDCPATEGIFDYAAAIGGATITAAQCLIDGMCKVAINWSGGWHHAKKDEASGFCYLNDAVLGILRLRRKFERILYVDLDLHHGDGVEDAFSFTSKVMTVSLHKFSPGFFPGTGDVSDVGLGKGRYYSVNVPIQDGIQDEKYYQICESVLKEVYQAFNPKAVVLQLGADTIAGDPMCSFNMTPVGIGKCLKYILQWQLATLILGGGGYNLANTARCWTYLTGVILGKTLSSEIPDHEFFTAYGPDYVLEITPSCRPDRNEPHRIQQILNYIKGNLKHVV
protocol_summary: Inhibition of human recombinant HDAC8 using H2N-Arg-His-Lys(Ac)-Lys(Ac)-AMC as substrate after 90 mins by fluorescence based micro plate assay
Entry rule: numbers only, all in nM.

## Task Name the recorded IC50 for "Cc1cc2cc(NCc3cc(C(=O)NO)ccc3Cl)ccc2n(C)c1=O" .
## Result 3190

***
## Task Which IC50 value is on record for "COc1ccc(C(=O)NO)cc1C(=O)Nc1ccc2c(c1)cc(C)c(=O)n2C" ?
## Result 65

## Task "Cc1cc2cc(NC(=O)c3cc(C(=O)NO)ccc3Cl)ccc2n(C)c1=O" , same question.
## Result 113

## Task Also need "Cc1cc2cc(NS(=O)(=O)Cc3ccc(C(=O)NO)cc3)ccc2n(C)c1=O" , thanks.
## Result 360

* * *

assayed_target: Histone deacetylase 8 (Homo sapiens)
Sequence (Q9BY41 whole entry): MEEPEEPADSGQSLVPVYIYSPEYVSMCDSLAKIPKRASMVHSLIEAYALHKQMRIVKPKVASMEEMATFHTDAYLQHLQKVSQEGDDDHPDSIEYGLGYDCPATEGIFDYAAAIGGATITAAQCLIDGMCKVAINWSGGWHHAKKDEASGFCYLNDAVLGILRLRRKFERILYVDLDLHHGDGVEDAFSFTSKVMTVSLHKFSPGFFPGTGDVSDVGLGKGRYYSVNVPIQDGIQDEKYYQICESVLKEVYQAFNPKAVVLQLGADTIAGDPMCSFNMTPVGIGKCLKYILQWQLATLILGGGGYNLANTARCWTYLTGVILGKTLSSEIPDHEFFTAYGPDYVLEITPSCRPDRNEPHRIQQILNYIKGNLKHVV
protocol_summary: Inhibition of human recombinant HDAC8 using H2N-Arg-His-Lys(Ac)-Lys(Ac)-AMC as substrate after 90 mins by fluorescence based micro plate assay
Listed here are molecules together with their documented pIC50.
// pIC50 is dimensionless: -log10 of concentration (M)

## Task Look at this molecule and give its reported pIC50. "COc1ccc(C(=O)NO)cc1S(=O)(=O)Nc1ccc2c(c1)cc(C)c(=O)n2C"
## Result 6.35

## Task One more molecule: "COc1ccc(C(=O)NO)cc1CNc1ccc2c(c1)cc(C)c(=O)n2C"
## Result 6.26

## Task Query "COc1cc(C(=O)NO)ccc1CS(=O)(=O)Nc1ccc2c(c1)cc(C)c(=O)n2C" next
## Result 6.64

Next:
## Task Would you mind telling me what pIC50 value was observed for "Cc1cc2cc(NS(=O)(=O)Cc3cccc(C(=O)NO)c3)ccc2n(C)c1=O" ?
## Result 6.33

## Task // same read-out, input: "Cc1cc2cc(NS(=O)(=O)c3ccc(C(=O)NO)cc3)ccc2n(C)c1=O"
## Result 6.04

## Task Then "COc1ccc(C(=O)NO)cc1CS(=O)(=O)Nc1ccc2c(c1)cc(C)c(=O)n2C" ?
## Result 6.80

## Task What do we get for "Cc1cc2cc(NS(=O)(=O)c3cc(C(=O)NO)ccc3Cl)ccc2n(C)c1=O" ?
## Result 6.25

## Task Then what about the molecule "COc1ccc(C(=O)NO)cc1NCc1ccc(OCCCCC(=O)Nc2ccc3c(c2)cc(C)c(=O)n3C)cc1" ?
## Result 6.02
